protocol details: E. coli acrAB mutant growth effects, primary screen, E. coli filamentation inducers, strain DRC39, OD650, 24 h (AID 1178);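 also: growth measured as culture turbidity by optical density at 650 nm; test concentration not given here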
settings: higher = more signal, called active from +8 up or from −8 down
Calls of active or inactive are those of the source.
For each record, write down the corresponding z-score.

stdin: Entry CC(C)C[C@@H]1NC(=O)[C@@H]2C[C@H](C(=O)NCCCCCN)[C@H](c3cccc(OCCO)c3)N2C1=O : reported z-score = ?
stdout: 1.06 (inactive)

Please give z-score, item by item, for the list that follows.
1. COC(=O)[C@@]1(Cc2ccc(F)cc2)[C@H]2c3cc(C(=O)N4CCCC4)n(Cc4cc(C)n(C)n4)c3C[C@H]2CN1C(=O)c1ccccc1
2. O=C1NC(=O)C2C1C=CC(C(O)Cc1ccccc1)N2Nc1ccc(Cl)cc1Cl (configuration not stated)
3. COC(=O)[C@@]1(Cc2ccc(F)cc2)[C@H]2c3cc(C(=O)N(C)C)n(CC4CC4)c3C[C@H]2CN1C(=O)c1ccccc1
4. O=C1O[C@H](c2ccccc2)[C@H](c2ccccc2)N2[C@H]1[C@@H](C(=O)O)[C@]1(C(=O)Nc3ccc(C#CC4=CCCCC4)cc31)[C@H]2c1ccccc1OCCO
5. CC(C)c1ccc(NN2C(C(O)c3cc(C(F)(F)F)cc(C(F)(F)F)c3)C=CC3C(=O)N(c4ccccc4)C(=O)C32)cc1 (configuration not stated)
6. O=C1NC(=O)C2C1C=CC(C(O)c1ccccc1)N2Nc1ccc(Cl)cc1Cl (configuration not stated)

stdout:
1. -0.375 (inactive)
2. -0.655 (inactive)
3. -0.868 (inactive)
4. -0.0532 (inactive)
5. -0.447 (inactive)
6. 0.047 (inactive)

* * *

protocol details: PSAC antagonists in infected red cells, primary screen, cell-based, P. falciparum Indochina, OD700, 1 h (AID 1154)
settings: P. falciparum Indochina infected RBC osmotic lysis, higher = more signal, called active from +8 up or from −8 down
endpoint name: z-score
Answers are plain numbers.

Field: example entries. Status: answers known.
stdin: // returns reported z-score for input COC(=O)[C@@]1(Cc2ccc(F)cc2)[C@H]2c3cc(C(=O)N(C)C)n(Cc4ccc(S(C)(=O)=O)cc4)c3C[C@H]2CN1C(=O)c1ccccc1
stdout: 1.32

stdin: Now consider O=C1NCC(=O)N2[C@@H]1C[C@@H](C(=O)O)[C@H]2c1cccc(OCCO)c1 and answer again.
stdout: 2.24

stdin: Consider next the compound O=C(NCC(F)(F)F)[C@@H]1c2ccccc2C(=O)N(C2CCCCC2)[C@H]1c1ccc(CO)cc1 in the same way.
stdout: 0.732

Moving on to the next compound.
stdin: Return reported z-score; argument: CC(C)C[C@@H]1NC(=O)[C@H]2C[C@@H](C(=O)NCCCCCCN)[C@@H](c3ccc(O)cc3)N2C1=O
stdout: 1.9

* * *

Exercise: for every item that follows, state its recorded composite z-score.
Test system: Sonic hedgehog protein (Shh)
protocol details: small-molecule binders of Shh protein, primary screen, biochemical, small-molecule microarray, 635/667 nm fluorescence (AID 1151);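 also: Shh protein binding to compounds spotted on small-molecule microarray slides; score combines spot fluorescence intensity with signal-to-noise across triplicate slides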
settings: small-molecule microarray binding, 635 nm fluorescence; higher = more signal
One number for each entry.

Use these answered entries as a reference point.
stdin: Suppose we examine the compound C[C@@H]1ON(c2cccc(C(=O)OC(C)(C)C)c2)[C@H](c2ccc(Br)cc2)[C@H]1C(=O)N1C(=O)OC[C@H]1Cc1ccccc1 ; what composite z-score value has been reported?
stdout: 0.937

stdin: Please give the result for COc1ccc(C(O)C2C=CC3C(=O)N(c4ccccc4)C(=O)C3N2Nc2ccc(C(C)C)cc2)cc1OCc1ccccc1 (stereo unspecified) too.
stdout: 0.55

stdin: One more compound: COc1cc2c(cc1OC)CN(C(=O)[C@@H]1[C@H]3C(=O)O[C@H](c4ccccc4)[C@H](c4ccccc4)N3[C@H](c3ccc(O)cc3)[C@@]13C(=O)Nc1ccc(C#CC4(O)CCCCCC4)cc13)CC2
stdout: 1.91

Respectfully, I request composite z-score for each entry included below.
1. CCCC[C@@H]1C[C@H]1[C@@H](NC(=O)c1ccco1)c1ccc(C(=O)OC)cc1
2. COC(=O)c1c(CC[C@@H](CO)NC(=O)N2CCC[C@H]2Cn2cc(-c3ccccn3)nn2)oc(C(C)=O)c1C(=O)OC

stdout:
[-1.47, 0.515]

* * *

Test system: Sonic hedgehog protein (Shh)
protocol details: small-molecule binders of Shh protein, primary screen, biochemical, small-molecule microarray, 635/667 nm fluorescence (AID 1151);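 also: Shh protein binding to compounds spotted on small-molecule microarray slides; score combines spot fluorescence intensity with signal-to-noise across triplicate slides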
settings: small-molecule microarray binding, 635 nm fluorescence; higher = more signal
endpoint name: composite z-score
Numbers only.

Recorded composite z-score, per entry:
stdin: For O=C1O[C@H](c2ccccc2)[C@H](c2ccccc2)N2[C@H]1[C@@H](C(=O)O)[C@]1(C(=O)Nc3ccc(C#CCCO)cc31)[C@H]2c1ccc(O)cc1 , what is its reported composite z-score?
stdout: 0.0441

stdin: C=C(CCCC)/C(=C/C[C@@H](OC(C)=O)c1ccccc1OCCO)c1cnc2ccccc2c1 ?
stdout: 1.02

stdin: Here is the next compound: O=C1OCCC/C=C\[C@H]2OC34C=CCN(Cc5ccccc5)C(=O)[C@H]3N(CCCCCCO)C(=O)[C@@H]4C12 (stereo partly drawn)
stdout: -0.693

stdin: # repeat for COc1ccc([Si](C)(C)[C@H]2[C@H](CC(=O)N3Cc4ccccc4C[C@H]3CO)O[C@@]3(C(=O)N(Cc4ccc(N5CCC5=O)cc4)c4ccccc43)[C@@H]2C)cc1
stdout: 1.85

stdin: Now the same for Cc1ccc(S[C@]2(C(=O)NCCN3CCOCC3)CC(=O)N(Cc3ccccc3)[C@@H]2c2ccc(CO)cc2I)cc1
stdout: -0.685

stdin: Now consider COC(=O)[C@@]1(Cc2ccc(OC)cc2)[C@H]2c3cc(C(=O)N(C)C)n(Cc4cccc5ccccc45)c3C[C@H]2CN1C(=O)c1ccccc1 and answer again.
stdout: 0.659

stdin: Another: CN(C)CCCCCCNC(=O)[C@@H]1C[C@@H]2C(=O)N[C@@H](CCCCN)C(=O)N2[C@@H]1c1cccc(OCCO)c1
stdout: 1.92

stdin: Param item: O=C(C1N=C(c2ccc(OCCCO)cc2)N(c2ccccc2)O1)N1CCOCC1 (stereo not drawn)
stdout: 0.476

Your task in this section: give composite z-score for each listed record.
1. COC(=O)[C@@]1(Cc2ccccc2)[C@H]2c3cc(C(=O)N4CCCC4)n(Cc4nc5ccccc5[nH]4)c3C[C@H]2CN1C(=O)c1ccccc1
2. COc1cc2c(cc1OC)CN(C(=O)[C@H]1[C@@H]3C(=O)O[C@@H](c4ccccc4)[C@@H](c4ccccc4)N3[C@@H](c3ccc(O)cc3)[C@]13C(=O)Nc1ccc(C#CCNC(N)=O)cc13)CC2

stdout:
1. -0.105
2. 0.74

Look up composite z-score for the entries below, preserving their order.
1. COC(=O)[C@@]1(Cc2ccc(F)cc2)[C@H]2c3cc(C(=O)N(C)C)n(Cc4ccc(S(C)(=O)=O)cc4)c3C[C@H]2CN1C(=O)c1ccccc1
2. COC(=O)[C@@]1(Cc2ccc(OC)cc2)[C@H]2c3cc(C(=O)N4CCCC4)n(Cc4ccsc4Br)c3C[C@H]2CN1C(=O)c1ccccc1
3. C=CCNC(=O)[C@@H]1[C@H]2C(=O)O[C@H](c3ccccc3)[C@H](c3ccccc3)N2[C@H](c2ccccc2OCCO)[C@@]12C(=O)N(C(=O)OCCOC)c1ccc(C#CCNC(N)=O)cc12

stdout:
1. -0.447
2. -0.658
3. 1.53

* * *

protocol details: basal RPMI8226 viability, no added stimulus, profiling panel, cell-based, calcein-AM fluorescence, 48 h, PK04 Diversity Set (AID 1166);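 also: cells grown under basal conditions without added stimulus; test concentration not given here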
settings: RPMI8226 myeloma viability, higher = more signal
endpoint name: z-score
Give bare numbers.

Examples with their reported z-score follow.
stdin: Please look up its z-score: CCOc1cc(C(O)C2C=CC3C(=O)N(c4ccccc4)C(=O)C3N2Nc2ccccc2)ccc1O (centres undefined)
stdout: 0.461

stdin: Cool, now [N-]=[N+]=NCc1ccccc1C[C@@]1(C(=O)NCC(O)CO)N=C(c2ccc(OCCCO)cc2)O[C@@H]1c1ccccc1N=[N+]=[N-] (some centres undefined)
stdout: -3.45

stdin: How about Cc1ccc(S[C@]2(C(=O)NC(C)C)CC(=O)N(Cc3ccccc3Cl)[C@@H]2c2ccc(CO)cc2I)cc1 ?
stdout: -1.58

Attention now shifts to the item below.
stdin: Looking for the measured z-score of CC(C)N1C(=O)c2ccccc2[C@](C)(C(=O)NCc2ccccc2)[C@@H]1c1ccc(CO)cc1 , can you help?
stdout: -0.0073

* * *

protocol details: basal RPMI8226 mitochondrial membrane potential changes, profiling panel, cell-based, JC-1 fluorescence, 24 h, 100 nL compound (AID 1169); also: test concentration not given here
settings: RPMI8226 myeloma, JC-1 mitochondrial potential fluorescence, higher = more signal
endpoint name: z-score
Numbers only.

stdin: Please look up its z-score: O=C1NCC(=O)N2[C@@H]1C[C@@H](C(=O)O)[C@H]2c1cccc(OCCO)c1
stdout: 0.529

stdin: Quick one: COCCOC(=O)N1C(=O)[C@@]2(c3cc(C#CCNC(N)=O)ccc31)[C@H](C(=O)NC[C@H](O)c1ccccc1)[C@H]1C(=O)O[C@H](c3ccccc3)[C@H](c3ccccc3)N1[C@@H]2c1ccccc1OCCO
stdout: -0.548

stdin: Okay, and O=C1OCC=C[C@H]2OC34C=CCN(c5ccc6ccccc6c5)C(=O)[C@H]3N(CCCCCCO)C(=O)[C@@H]4[C@@H]12 (stereo not given in full) ?
stdout: -0.979

stdin: Try CN(C)CCCNC(=O)[C@@]1(c2ccc([N+](=O)[O-])cc2)CC(=O)N(C2CCCCC2)[C@@H]1c1ccc(CO)cc1 next.
stdout: 0.956

stdin: Same for COCCCNC(=O)C1N=C(c2ccc(OCCCO)cc2)N(c2ccccc2)O1 (stereo not given)
stdout: -0.492

stdin: Another compound: CCCC[C@@H]1C[C@H]1[C@@H](NC(=O)c1ccco1)c1ccc(C(=O)OC)cc1
stdout: -0.705

Fill in z-score for each of the 4 compounds listed.
1. C=C(CCCC)C(=O)CC[C@H](OC(C)=O)c1cccc(OCCO)c1
2. CC(C)C[C@@H]1NC(=O)[C@H]2C[C@@H](C(=O)NCCCCCCN)[C@@H](c3ccc(O)cc3)N2C1=O
3. COc1ccc(CCNC(=O)[C@@]2(Sc3ccc(C)cc3)CC(=O)N(C3CCCCC3)[C@@H]2c2ccc(CO)cc2I)cc1
4. COc1ccc([C@H]2C[C@H]3C(Br)=C[C@@H]2C(=O)[C@]32CO2)cc1

stdout:
0.139
-0.279
-0.632
-0.556

List the reported z-score of each compound below.
1. O=C1O[C@H](c2ccccc2)[C@H](c2ccccc2)N2[C@H]1[C@@H](C(=O)Nc1nc3ccccc3s1)[C@]1(C(=O)Nc3ccc(C#CC4(O)CCCCCC4)cc31)[C@H]2c1ccc(OCCO)cc1
2. C=C(/C(=C/C[C@@H](OC(C)=O)c1ccc(OCCO)cc1)c1cnc2ccccc2c1)C(C)C
3. CCOC(=O)[C@H]1C/C=C/C[C@H](C(=O)OCC)C(=O)O[C@H]2[C@@H](OC)O[C@H](CO)[C@@H](OC(=O)Nc3cccc(F)c3)[C@@H]2OC1=O
4. CN1C(=O)C2C=CC(C(O)c3ccc(I)cc3)N(N3CCCCC3)C2C1=O (stereo not given)
5. COc1cc2c(cc1OC)CN(C(=O)[C@H]1[C@@H]3C(=O)O[C@@H](c4ccccc4)[C@@H](c4ccccc4)N3[C@@H](c3ccc(O)cc3)[C@]13C(=O)Nc1ccc(C#CC4=CCCCC4)cc13)CC2

stdout:
[-1.22, -0.139, -0.959, -0.484, -0.243]

Value source: PubChem BioAssay
